molecular target: Histamine H1 receptor (Cavia porcellus) (UniProt P31389); test: Maximum response (E max) against histamine H1 receptor in guinea pig ileum; format: tissue-based
Sequence (P31389 whole entry): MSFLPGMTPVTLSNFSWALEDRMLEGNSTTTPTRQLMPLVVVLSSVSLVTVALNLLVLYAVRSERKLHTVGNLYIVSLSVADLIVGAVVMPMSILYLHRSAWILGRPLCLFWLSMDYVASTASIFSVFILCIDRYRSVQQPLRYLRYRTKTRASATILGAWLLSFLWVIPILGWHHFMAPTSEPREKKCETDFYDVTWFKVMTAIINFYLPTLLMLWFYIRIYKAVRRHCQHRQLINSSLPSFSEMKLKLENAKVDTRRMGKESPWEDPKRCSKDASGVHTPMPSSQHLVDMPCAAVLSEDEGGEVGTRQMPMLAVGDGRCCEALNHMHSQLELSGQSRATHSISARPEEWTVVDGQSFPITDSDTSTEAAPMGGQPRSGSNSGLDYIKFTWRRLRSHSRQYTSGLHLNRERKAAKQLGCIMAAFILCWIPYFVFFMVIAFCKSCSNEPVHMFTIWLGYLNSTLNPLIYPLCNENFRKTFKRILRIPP
OBSERVED_PROPERTY: Emax (%)

A selection of reference data follows.
INSERT INTO results (smiles_record, target_under_test, observed_property, numeric_result) VALUES
  ('c1ccc(C(CCc2nc(CCNCCCCCc3ccccn3)c[nH]2)c2ccccc2)cc1', 'Histamine H1 receptor (Cavia porcellus) (UniProt P31389)', 'Emax', 83),
  ('c1ccc(C(CCc2nc(CCNCCCCc3ccccn3)c[nH]2)c2ccccc2)cc1', 'Histamine H1 receptor (Cavia porcellus) (UniProt P31389)', 'Emax', 89),
  ('c1ccc(C(CCc2nc(CCNCCCCc3ccncc3)c[nH]2)c2ccccc2)cc1', 'Histamine H1 receptor (Cavia porcellus) (UniProt P31389)', 'Emax', 84),
  ('c1ccc(C(CCc2nc(CCNCCCc3c[nH]cn3)c[nH]2)c2ccccc2)cc1', 'Histamine H1 receptor (Cavia porcellus) (UniProt P31389)', 'Emax', 95),
  ('c1ccc(C(CCc2nc(CCNCCCCCc3ccncc3)c[nH]2)c2ccccc2)cc1', 'Histamine H1 receptor (Cavia porcellus) (UniProt P31389)', 'Emax', 57),
  ('c1ccc(C(CCc2nc(CCNCCCCc3c[nH]cn3)c[nH]2)c2ccccc2)cc1', 'Histamine H1 receptor (Cavia porcellus) (UniProt P31389)', 'Emax', 86);

P = c1ccc(C(CCc2nc(CCNCCCCc3cccnc3)c[nH]2)c2ccccc2)cc1
Q = c1ccc(C(CCc2nc(CCNCCCc3cccnc3)c[nH]2)c2ccccc2)cc1
For the two items P and Q , which reports the higher Emax value? Field: selected label. Fill in the label of the entry you choose. P

1 = c1ccc(C(CCc2nc(CCNCCc3ccccn3)c[nH]2)c2ccccc2)cc1
2 = c1ccc(C(CCc2nc(CCNCCc3cccnc3)c[nH]2)c2ccccc2)cc1
Endpoint returns whichever of 1 and 2 has the numerically higher Emax. Your answer should be the label of the entry you select. 1
(1: 92%, 2: 64%)

---

target: Histamine H1 receptor (Cavia porcellus); experiment: Equilibrium dissociation constant (pKp) against histamine H1 receptor in guinea pig ileum; assay type: tissue-based
OBSERVED_PROPERTY: pKp

INSERT INTO assay_data (smiles_record, observed_property, numeric_result) VALUES
  ('c1ccc(C(CCc2nc(CCNCCc3cnc[nH]3)c[nH]2)c2ccccc2)cc1', 'pKp', 7.67),
  ('c1ccc(C(CCc2nc(CCNCCCc3cccnc3)c[nH]2)c2ccccc2)cc1', 'pKp', 6.18),
  ('c1ccc(C(CCc2nc(CCNCCCCCc3ccccn3)c[nH]2)c2ccccc2)cc1', 'pKp', 6.74),
  ('c1ccc(C(CCc2nc(CCNCCc3cccnc3)c[nH]2)c2ccccc2)cc1', 'pKp', 6.52),
  ('c1ccc(C(CCc2nc(CCNCCCCc3cccnc3)c[nH]2)c2ccccc2)cc1', 'pKp', 6.88),
  ('c1ccc(C(CCc2nc(CCNCCCc3ccccn3)c[nH]2)c2ccccc2)cc1', 'pKp', 7.13),
  ('NCCc1c[nH]c(CCC(c2ccccc2)c2ccccc2)n1', 'pKp', 6.04),
  ('c1ccc(C(CCc2nc(CCNCCCCc3ccncc3)c[nH]2)c2ccccc2)cc1', 'pKp', 6.56),
  ('c1ccc(C(CCc2nc(CCNCCCc3ccncc3)c[nH]2)c2ccccc2)cc1', 'pKp', 5.69),
  ('c1ccc(C(CCc2nc(CCNCCCCc3ccccn3)c[nH]2)c2ccccc2)cc1', 'pKp', 7.45),
  ('c1ccc(C(CCc2nc(CCNCCCc3c[nH]cn3)c[nH]2)c2ccccc2)cc1', 'pKp', 7.14),
  ('c1ccc(C(CCc2nc(CCNCCCCCc3ccncc3)c[nH]2)c2ccccc2)cc1', 'pKp', 5.9),
  ('CNCCc1c[nH]c(CCC(c2ccccc2)c2ccccc2)n1', 'pKp', 6.45),
  ('c1ccc(C(CCc2nc(CCNCCCCc3c[nH]cn3)c[nH]2)c2ccccc2)cc1', 'pKp', 6.17),
  ('c1ccc(C(CCc2nc(CCNCCc3ccncc3)c[nH]2)c2ccccc2)cc1', 'pKp', 6.02),
  ('c1ccc(C(CCc2nc(CCNCCCCCc3cccnc3)c[nH]2)c2ccccc2)cc1', 'pKp', 6.61);

---

molecular target: Histamine H1 receptor (Cavia porcellus) (UniProt P31389); assay: Maximum response (E max) against H1 receptor in guinea pig ileum; assay type: tissue-based
OBSERVED_PROPERTY: Emax (%)

Some compounds with recorded Emax:
INSERT INTO results (smiles_record, observed_property, unit_info, numeric_result) VALUES
  ('c1ccc(C(CCc2nc(CCNCCCc3ccccn3)c[nH]2)c2ccccc2)cc1', 'Emax', '%', 80),
  ('c1ccc(C(CCc2nc(CCNCCCCc3ccccn3)c[nH]2)c2ccccc2)cc1', 'Emax', '%', 89),
  ('c1ccc(C(CCc2nc(CCNCCc3cnc[nH]3)c[nH]2)c2ccccc2)cc1', 'Emax', '%', 96);

I = c1ccc(C(CCc2nc(CCNCCc3ccccn3)c[nH]2)c2ccccc2)cc1
II = c1ccc(C(CCc2nc(CCNCCc3cccnc3)c[nH]2)c2ccccc2)cc1
// compare measured Emax, left I , right II , return larger Please identify the chosen entry by its label. I

---

target: Histamine H1 receptor (Cavia porcellus, UniProt P31389); test: Effective concentration against histamine H1 receptor in endothelium-Denuded rings of guinea pig Aorta
Sequence (P31389 whole entry): as above
pEC50: −log10 of the molar value.
OBSERVED_PROPERTY: pEC50

These solved cases illustrate the format of a correct answer.
INSERT INTO measurements (smiles_record, target_under_test, numeric_result) VALUES
  ('c1ccc(C(CCc2nc(CCNCCc3cccnc3)c[nH]2)c2ccccc2)cc1', 'Histamine H1 receptor (Cavia porcellus, UniProt P31389)', 7.08),
  ('c1ccc(C(CCc2nc(CCNCCc3cnc[nH]3)c[nH]2)c2ccccc2)cc1', 'Histamine H1 receptor (Cavia porcellus, UniProt P31389)', 8.01);

I = NCCc1cnc(CCC(c2ccccc2)c2ccccc2)[nH]1
II = c1ccc(C(CCc2nc(CCNCCCCc3ccccn3)c[nH]2)c2ccccc2)cc1
III = c1ccc(C(CCc2nc(CCNCCc3ccccn3)c[nH]2)c2ccccc2)cc1
IV = CNCCc1cnc(CCC(c2ccccc2)c2ccccc2)[nH]1
Arrange the 4 compounds from largest to smallest pEC50. Would you mind listing the labels in the order requested? II, IV, III, I
(II: 7.85, IV: 7.40, III: 7.09, I: 6.80)

---

target: Histamine H2 receptor (Cavia porcellus); conditions: Cardiac atrium
OBSERVED_PROPERTY: pD2

INSERT INTO assay_data (smiles_record, observed_property, numeric_result) VALUES
  ('c1ccc(C(CCc2nc(CCNCCCCCc3cccnc3)c[nH]2)c2ccccc2)cc1', 'pD2', 5.25),
  ('c1ccc(C(CCc2nc(CCNCCCc3ccccn3)c[nH]2)c2ccccc2)cc1', 'pD2', 4.96),
  ('c1ccc(C(CCc2nc(CCNCCc3cccnc3)c[nH]2)c2ccccc2)cc1', 'pD2', 4.62),
  ('c1ccc(C(CCc2nc(CCNCCCCc3c[nH]cn3)c[nH]2)c2ccccc2)cc1', 'pD2', 4.12),
  ('c1ccc(C(CCc2nc(CCNCCCc3cccnc3)c[nH]2)c2ccccc2)cc1', 'pD2', 4.05),
  ('c1ccc(C(CCc2nc(CCNCCCCc3ccccn3)c[nH]2)c2ccccc2)cc1', 'pD2', 4.78),
  ('c1ccc(C(CCc2nc(CCNCCc3ccccn3)c[nH]2)c2ccccc2)cc1', 'pD2', 4.37),
  ('c1ccc(C(CCc2nc(CCNCCCc3ccncc3)c[nH]2)c2ccccc2)cc1', 'pD2', 4.36),
  ('c1ccc(C(CCc2nc(CCNCCCCc3cccnc3)c[nH]2)c2ccccc2)cc1', 'pD2', 4.77),
  ('c1ccc(C(CCc2nc(CCNCCCc3c[nH]cn3)c[nH]2)c2ccccc2)cc1', 'pD2', 3.92),
  ('c1ccc(C(CCc2nc(CCNCCCCc3ccncc3)c[nH]2)c2ccccc2)cc1', 'pD2', 4.59),
  ('c1ccc(C(CCc2nc(CCNCCc3ccncc3)c[nH]2)c2ccccc2)cc1', 'pD2', 4.37),
  ('c1ccc(C(CCc2nc(CCNCCCCCc3ccncc3)c[nH]2)c2ccccc2)cc1', 'pD2', 4.12),
  ('c1ccc(C(CCc2nc(CCNCCCCCc3ccccn3)c[nH]2)c2ccccc2)cc1', 'pD2', 5.02);

---

target: Histamine H1 receptor (Rattus norvegicus) (UniProt P31390); experiment: Maximum response (E max) against H1 receptor in rat aorta; format: tissue-based
Sequence (P31390 whole entry): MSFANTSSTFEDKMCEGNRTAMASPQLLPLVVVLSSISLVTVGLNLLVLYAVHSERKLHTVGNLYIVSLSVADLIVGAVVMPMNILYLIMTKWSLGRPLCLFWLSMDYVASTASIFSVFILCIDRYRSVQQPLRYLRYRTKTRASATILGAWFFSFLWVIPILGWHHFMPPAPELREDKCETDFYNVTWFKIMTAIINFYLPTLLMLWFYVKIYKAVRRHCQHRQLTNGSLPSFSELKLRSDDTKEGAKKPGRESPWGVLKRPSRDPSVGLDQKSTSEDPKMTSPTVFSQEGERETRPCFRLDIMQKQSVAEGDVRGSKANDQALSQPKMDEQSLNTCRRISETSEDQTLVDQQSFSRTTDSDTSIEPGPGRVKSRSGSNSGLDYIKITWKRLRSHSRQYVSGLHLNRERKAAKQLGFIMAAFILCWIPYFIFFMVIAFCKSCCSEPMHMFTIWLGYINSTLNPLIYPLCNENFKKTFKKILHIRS
OBSERVED_PROPERTY: Emax (%)

INSERT INTO measurements (smiles_record, target_under_test, observed_property, numeric_result) VALUES
  ('c1ccc(C(CCc2nc(CCNCCc3ccccn3)c[nH]2)c2ccccc2)cc1', 'Histamine H1 receptor (Rattus norvegicus) (UniProt P31390)', 'Emax', 59),
  ('NCCc1c[nH]c(CCC(c2ccccc2)c2ccccc2)n1', 'Histamine H1 receptor (Rattus norvegicus) (UniProt P31390)', 'Emax', 50),
  ('c1ccc(C(CCc2nc(CCNCCc3cnc[nH]3)c[nH]2)c2ccccc2)cc1', 'Histamine H1 receptor (Rattus norvegicus) (UniProt P31390)', 'Emax', 56),
  ('c1ccc(C(CCc2nc(CCNCCCCc3ccccn3)c[nH]2)c2ccccc2)cc1', 'Histamine H1 receptor (Rattus norvegicus) (UniProt P31390)', 'Emax', 65);
